Every entry's value here was drawn from PubChem BioAssay (NCATS).

Test system: MCC-26
Experiment: qHTS assay to identify novel small-molecules to repurpose for Merkel cell carcinoma treatment (AID 1296009); note: nearly all actives have a fitted effect of over 60% in size
Conditions: MCC and control cell lines, CellTiter-Glo viability, 72 h; series mostly up to 46 µM
From the text: MCC is a rare and aggressive neuroendocrine skin cancer with limited treatment options. Approximately 80% of MCCs have the Merkel cell polyomavirus (MCPyV) DNA integrated into the host genome (virus-positive: VP-MCC) and viral oncogenes drive oncogenesis. The remaining MCCs are virus-negative (VN-MCC) and are caused by UV mutagenesis. […] Using cell viability as a readout (CellTiter-Glo assay) we found both overlapping and distinct drugs that can be repurposed for the treatment of VP-MCC and VN-MCC. […]
Results filed as inconclusive are left out. Active and inactive are the calls of the source. Calls come from the whole dose curve; as a rule, active = well fitted inhibition curve with a large enough effect; inconclusive = small, poorly fitted or top-dose-only effect; inactive = flat fitted curve, though single readings scatter.
Select the matching outcome among active, inactive

A selection of reference data follows.
* Cn1cc(-c2cnn3c(N)c(Br)c([C@H]4CCCNC4)nc23)cn1 | inactive
* CC(C)NC[C@@H](C(=O)N1CCN(c2ncnc3c2[C@H](C)C[C@H]3O)CC1)c1ccc(Cl)cc1 | inactive
* COC(=O)C1C2CC3c4[nH]c5cc(OC)ccc5c4CCN3CC2CC(OC(=O)c2cc(OC)c(OC)c(OC)c2)C1OC (centres undefined) | inactive
* CC(C)[C@H](CO)Nc1nc(Nc2cccc(Cl)c2)c2ncn(C(C)C)c2n1 | inactive
* C[N+]1(C)[C@@H]2C[C@@H](OC(=O)C(O)(c3cccs3)c3cccs3)C[C@H]1[C@@H]1O[C@@H]12 | inactive

## Input Hi, do you know how C[C@@H](NCc1cc2ccccc2[nH]1)c1cccc2ccccc12 came out in this test?
## Output inactive

## Input Param item: CC(=O)N1CCN(c2ccc(OCc3nn(C)c(C)c3-c3cccc4c(CCCOc5cccc6ccccc56)c(C(=O)O)n(Cc5cccnc5)c34)cc2)CC1
## Output active

## Input Next compound up: OC[C@@H](O)[C@@H](O)[C@H](O)[C@@H](O)CO
## Output inactive

## Input Field entry: O=C(NCc1ccccc1)[C@H](Cc1ccccc1)NC(=O)[C@@H]1O[C@@H]1C(=O)NCCc1ccc(O)cc1
## Output inactive

----------
system: WaGa; assay: qHTS assay to identify novel small-molecules to repurpose for Merkel cell carcinoma treatment (AID 1296009); settings: MCC and control cell lines, CellTiter-Glo viability, 72 h; series mostly up to 46 µM; note: nearly all actives have a fitted effect of over 60% in size
Results filed as inconclusive are left out. Active and inactive are the calls of the source. Calls come from the whole dose curve; as a rule, active = well fitted inhibition curve with a large enough effect; inconclusive = small, poorly fitted or top-dose-only effect; inactive = flat fitted curve, though single readings scatter.
Answer with one of the outcomes given here: t (active), f (inactive)

Some solved entries appear below for comparison.
• CC(=O)O[C@]1(C(C)=O)CC[C@H]2[C@@H]3C=C(C)C4=CC(=O)CC[C@]4(C)[C@@H]3CC[C@@]21C = t
• CC(=CC(=O)Nc1ccccc1C(=O)O)c1ccc2ccccc2c1 = f

Alright, here's another molecule for you.
## Input What was the test verdict on CCCNC(=O)[C@H]1O[C@H]1C(=O)N[C@H](C(=O)N1CCC[C@@H]1C(=O)OC)C(C)CC (stereo partly drawn) ?
## Output t

----------
assay: qHTS of pediatric cancer cell lines to identify multiple opportunities for drug repurposing: Confirmatory screen for A673 cells (AID 1347110); conditions: A673 Ewing sarcoma cell viability; series mostly up to 45.9 µM;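 note: cells exposed to compound for 48 h before the viability read; nearly all actives have a fitted effect of over 65% in size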
Inconclusive results are not listed. The source made the active and inactive calls. Calls come from the whole dose curve; as a rule, active = well fitted cell-killing curve with a large enough effect; inconclusive = small, poorly fitted or top-dose-only effect; inactive = flat fitted curve, though single readings scatter. Non-standard residues stand in square brackets, D forms with d. Residues, ends and D or L forms follow the SMILES beside them. *: point of attachment. Nva = CCC[C@H](N)C(=O)O; Cbz = O=C(OCc1ccccc1)*
Please reply with one of these outcomes: 1 = active, 0 = inactive

- NC(=O)Nc1sc(-c2ccc(F)cc2)cc1C(N)=O: 1

## Input Hi, sorry to bother you, what did the test record for C=C1C(=CC=C2CCC[C@]3(C)[C@@H]([C@H](C)CCCC(C)(C)O)CC[C@@H]23)C[C@@H](O)C[C@@H]1O ?
## Output 0

## Input Check COC(=O)[C@@H]1[C@H]2C[C@@H]3c4[nH]c5ccccc5c4CCN3C[C@@H]2CC[C@@H]1O too.
## Output 0

## Input Then what about the compound C#CCC(Cc1cnc2nc(N)nc(N)c2n1)c1ccc(C(=O)N[C@@H](CCC(=O)O)C(=O)O)cc1 (some centres undefined) ?
## Output 1

## Input Quick one: CC(=O)NCC(=O)N1[C@H]2CC[C@H]1c1cc(Nc3ncc(C(F)(F)F)c(NC4CCC4)n3)ccc12
## Output 1

## Input Same question for CCC[C@@H](C=O)NC(=O)[C@H](CC(C)C)NC(=O)[C@H](CC(C)C)NC(=O)OCc1ccccc1 (Cbz-Leu-Leu-[Nva]-aldehyde) please.
## Output 1

## Input Now try COc1cc([C@@H]2c3cc4c(cc3[C@H](O)[C@H]3COC(=O)[C@@H]23)OCO4)cc(OC)c1OC .
## Output 1

## Input Try this compound too: COc1ccc(S(=O)(=O)Nc2cccnc2Nc2ccc(O)cc2)cc1
## Output 1

## Input Also COc1cc(O)c2c(c1)C1OC1C[C@H](O)[C@H](O)C(=O)C=CC[C@H](C)OC2=O (some centres undefined) , if possible.
## Output 1
